Experiment: Pharmacokinetic evaluation experiment in mice (IV and PO)
Type: in vivo
Settings: mouse; male ICR mice, IV 5 mg/kg, plasma; read-out: Vss
Method: 120 healthy adult male ICR mice were selected and divided into 20 groups according to the principle of similar body weight, with 6 mice in each group of IV (10 groups) and 6 mice in each group of PO (10 groups). […] The content of the test compound in the plasma of mice after intravenous and intragastric administration was determined by LC/MS/MS method. The linear range of the method was 1.00 to 1000 ng/mL: plasma samples were analyzed after protein precipitation.
Decision: Vd >= 7 L/kg yields MET, all other cases yield NOT MET.

compound="CNC(=O)c1cc2c(c(F)c1-c1c(Cl)c(F)cc3c1C[C@](c1ccccc1)([C@@H]1CCCN1)O3)CCC2 [Compound 31a]" class_assignment="NOT MET"
compound="CNC(=O)c1cc2c(c(F)c1-c1c(Cl)c(F)cc3c1C[C@](c1ccccc1)([C@@H]1CCCN1)O3)CCC2O (stereo partly drawn) [Compound 41a]" class_assignment="NOT MET"
compound="CNC(=O)c1cc2c(c(F)c1-c1c(Cl)c(F)cc3c1C[C@](c1ccccc1)([C@@H]1CCCN1)O3)C1CC1O2 (stereo partly drawn)" class_assignment=MET
compound="CNC(=O)c1cc2c(c(F)c1-c1c(Cl)c(F)cc3c1C[C@@](CN[C@H]1CC[C@H](O)CC1)(c1ccccc1)O3)C1CC1O2 (stereo partly drawn) [Compound 13a]" class_assignment=MET
compound="CNC(=O)c1cnc(OCCO)c(F)c1-c1c(Cl)c(F)cc2c1C[C@](c1ccccc1)([C@@H]1CC3(CC3)CN1)O2 [Compound 10a]" class_assignment="NOT MET"
compound="CNC(=O)c1cc2c(c(F)c1-c1c(Cl)c(F)cc3c1C[C@](c1ccccc1)([C@@H]1CC4(CC4)CN1)O3)C1CC1O2 (stereo partly drawn) [Compound 16a]" class_assignment=MET
compound="CNC(=O)c1cc2c(c(F)c1-c1c(Cl)c(F)cc3c1C[C@](c1ccccc1)([C@@H]1CC4(CC4)CN1)O3)OC1CC21 (stereo partly drawn) [Compound 18a]" class_assignment=MET
compound="CNC(=O)c1cc2c(c(F)c1-c1c(Cl)c(F)cc3c1C[C@](c1ccccc1)([C@@H]1CCCN1)O3)OC1CC21 (stereo partly drawn) [Compound 17a]" class_assignment=MET

----------
assay: Pharmacokinetic evaluation experiment in mice (IV and PO); type: in vivo; conditions: mouse; male ICR mice, IV 5 mg/kg, plasma; read-out: AUC
Here the recorded AUC is given for each entry.
property-label: AUC (µg·h/mL)

compound="CNC(=O)c1cc2c(c(F)c1-c1c(Cl)c(F)cc3c1C[C@](c1ccccc1)([C@@H]1CCCN1)O3)CCC2 [Compound 31a]" result=2.79
compound="CNC(=O)c1cc2c(c(F)c1-c1c(Cl)c(F)cc3c1C[C@](c1ccccc1)([C@@H]1CCCN1)O3)C1CC1O2 (stereo partly shown)" result=0.75
compound="CNC(=O)c1cc2c(c(F)c1-c1c(Cl)c(F)cc3c1C[C@](c1ccccc1)([C@@H]1CCCN1)O3)CCC2O (stereo partly shown) [Compound 41a]" result=2.28
compound="CNC(=O)c1cc2c(c(F)c1-c1c(Cl)c(F)cc3c1C[C@@](CN[C@H]1CC[C@H](O)CC1)(c1ccccc1)O3)C1CC1O2 (stereo partly shown) [Compound 13a]" result=2.01

----------
Test: Pharmacokinetic evaluation experiment in mice (IV and PO)
Format: in vivo
Settings: mouse; male ICR mice, PO 30 mg/kg, plasma; read-out: Tmax
Protocol: 120 healthy adult male ICR mice were selected and divided into 20 groups according to the principle of similar body weight, with 6 mice in each group of IV (10 groups) and 6 mice in each group of PO (10 groups). […] The content of the test compound in the plasma of mice after intravenous and intragastric administration was determined by LC/MS/MS method. The linear range of the method was 1.00 to 1000 ng/mL: plasma samples were analyzed after protein precipitation.
property-label: Tmax (h)

compound="NC(=O)c1cc2c(c(F)c1-c1c(Cl)c(F)cc3c1C[C@](c1ccccc1)([C@@H]1CCCN1)O3)CCC2O (stereo partly drawn) [Compound 53a]" property_label=Tmax result=0.5
compound="CNC(=O)c1cc2c(c(F)c1-c1c(Cl)c(F)cc3c1C[C@](c1ccccc1)([C@@H]1CCCN1)O3)C1CC1O2 (stereo partly drawn) [Compound 2a]" property_label=Tmax result=4
compound="CNC(=O)c1cc2c(c(F)c1-c1c(Cl)c(F)cc3c1C[C@](c1ccccc1)([C@@H]1CCCN1)O3)CCC2O (stereo partly drawn) [Compound 41a]" property_label=Tmax result=2
compound="CNC(=O)c1cnc(OCCO)c(F)c1-c1c(Cl)c(F)cc2c1C[C@](c1ccccc1)([C@@H]1CC3(CC3)CN1)O2 [Compound 10a]" property_label=Tmax result=0.5
compound="CNC(=O)c1cc2c(c(F)c1-c1c(Cl)c(F)cc3c1C[C@](c1ccccc1)([C@@H]1CC4(CC4)CN1)O3)C1CC1O2 (stereo partly drawn) [Compound 16a]" property_label=Tmax result=2
compound="CNC(=O)c1cc2c(c(F)c1-c1c(Cl)c(F)cc3c1C[C@](c1ccccc1)([C@@H]1CC4(CC4)CN1)O3)OC1CC21 (stereo partly drawn) [Compound 18a]" property_label=Tmax result=0.8

----------
Here the recorded pIC50 is given for each entry.
system: NCI-H2052 cells; experiment: Tumor cell proliferation inhibition experiment (Cell Titer Glo), NCI-H2052; format: cell-based; conditions: Homo sapiens, 72 h, NCI-H2052 lung cancer cells, three days incubation
pIC50: −log10 of the molar value.
property-label: pIC50

compound="CNC(=O)c1cnc(OCCO)c(F)c1-c1c(C#N)c(F)cc2c1C[C@](c1ccccc1)([C@@H]1CCCN1)O2 [Compound 12a]" result_operator=< result=5.00
compound="CNC(=O)c1cc2c(c(F)c1-c1c(Cl)c(F)cc3c1C[C@@](CN[C@H]1CC[C@](C)(O)CC1)(c1ccccc1)O3)[C@H]1C[C@H]1O2 [Compound 14a1]" result_operator== result=6.54
compound="CNC(=O)c1cc2c(c(F)c1-c1c(Cl)c(F)cc3c1C[C@](c1ccccc1)([C@@H]1CC4(CC4)CN1)O3)OC1CC21 (some centres unmarked) [Compound 18a]" result_operator== result=6.14
compound="CNC(=O)c1cc2c(c(F)c1-c1c(Cl)c(F)cc3c1C[C@](c1ccccc1)([C@@H]1CCCN1)O3)CC1(CC1)C2 [Compound 1a]" result_operator== result=5.32
compound="CNC(=O)c1cc2c(c(F)c1-c1c(Cl)c(F)cc3c1C[C@](c1ccccc1)([C@@H]1CCCN1)O3)N1C[C@H](O)CC1CO2 (some centres unmarked) [Compound 4a]" result_operator== result=5.08
compound="C[C@]1(O)CC[C@H](NC[C@@]2(c3ccccc3)Cc3c(cc(F)c(Cl)c3-c3c(C(N)=O)cc4c(c3F)C3CC3O4)O2)CC1 (some centres unmarked) [Compound 23a]" result_operator== result=6.70
compound="CNC(=O)c1cc2c(c(F)c1-c1c(Cl)c(F)cc3c1C[C@](c1ccccc1)([C@@H]1CCCN1)O3)CCC2 [Compound 31a]" result_operator== result=6.60
compound="CNC(=O)c1cnc(OCCO)c(OC)c1-c1c(Cl)c(F)cc2c1C[C@](c1ccccc1)([C@@H]1CCCN1)O2 [Compound 7a]" result_operator== result=5.04
compound="CNC(=O)c1cc2c(c(F)c1-c1c(Cl)c(F)cc3c1C[C@](c1ccccc1)([C@@H]1CCCN1)O3)N1C[C@@H](F)CC1CO2 (some centres unmarked) [Compound 5a]" result_operator== result=5.50
compound="CNC(=O)c1cc2c(c(F)c1-c1c(Cl)c(F)cc3c1C[C@](c1ccccc1)([C@@H]1CC4(CC4)CN1)O3)C1CC1O2 (some centres unmarked) [Compound 16a]" result_operator== result=5.73
compound="CNC(=O)c1cc2c(c(F)c1-c1c(Cl)c(F)cc3c1C[C@](c1ccccc1)([C@@H]1CCCN1)O3)N1CCCC1CO2 (some centres unmarked) [Compound 3a]" result_operator== result=5.73

----------
test system: NCI-H2052 cells; assay: Tumor cell proliferation inhibition experiment (Cell Titer Glo), NCI-H2052; format: cell-based; settings: Homo sapiens, 72 h, NCI-H2052 lung cancer cells, three days incubation
Here the recorded IC50 is given for each entry.
property-label: IC50 (µM)

compound="CNC(=O)c1cc2c(c(F)c1-c1c(Cl)c(F)cc3c1C[C@@](CN[C@H]1CC[C@](C)(O)CC1)(c1ccccc1)O3)OC1CC21 (stereo partly shown) [Compound 22a]" result_operator== result=0.09
compound="CNC(=O)c1cc2c(c(F)c1-c1c(Cl)c(F)cc3c1C[C@](c1ccccc1)([C@@H]1CCCN1)O3)CCC2F (stereo partly shown) [Compound 43a]" result_operator== result=0.5
compound=C#Cc1c(OCCO)ncc(C(=O)NC)c1-c1c(Cl)c(F)cc2c1C[C@](c1ccccc1)([C@@H]1CCCN1)O2 result_operator== result=7.97
compound="CNC(=O)c1cc2c(c(F)c1-c1c(Cl)c(F)cc3c1C[C@](c1ccccc1)([C@@H]1CCCN1)O3)OC1CC21 (stereo partly shown) [Compound 17a]" result_operator== result=0.09
compound="NC(=O)c1cc2c(c(F)c1-c1c(Cl)c(F)cc3c1C[C@](c1ccccc1)([C@@H]1CCCN1)O3)CCC2O (stereo partly shown) [Compound 53a]" result_operator== result=0.16
compound="CNC(=O)c1cc2c(c(F)c1-c1c(Cl)c(F)cc3c1C[C@@](CN[C@H]1CC[C@](C)(O)CC1)(c1ccccc1)O3)CC(O)C2 (stereo partly shown) [Compound 80a]" result_operator== result=0.58
compound="CNC(=O)c1cc2c(c(F)c1-c1c(Cl)c(F)cc3c1C[C@](c1ccccc1)([C@@H]1CCCN1)O3)CCC2O (stereo partly shown) [Compound 41a]" result_operator== result=0.42
compound="CNC(=O)c1cc2c(c(F)c1-c1c(Cl)c(F)cc3c1C[C@@](CN[C@H]1CC[C@H](O)CC1)(c1ccccc1)O3)C1CC1O2 (stereo partly shown) [Compound 13a]" result_operator== result=0.21
compound=CNC(=O)c1cnc(OCCO)c(O)c1-c1c(Cl)c(F)cc2c1C[C@](c1ccccc1)([C@@H]1CCCN1)O2 result_operator=> result=10
compound="CNC(=O)c1cc2c(c(F)c1-c1c(Cl)c(F)cc3c1C[C@@](CN[C@H]1CC[C@](C)(O)CC1)(c1ccccc1)O3)CCC2 [Compound 30a]" result_operator== result=0.55
compound="C[C@]1(O)CC[C@H](NC[C@@]2(c3ccccc3)Cc3c(cc(F)c(Cl)c3-c3c(C(N)=O)cc4c(c3F)OC3CC43)O2)CC1 (stereo partly shown) [Compound 24a]" result_operator== result=0.04
compound=CNC(=O)c1cnc(OCCO)c(N)c1-c1c(Cl)c(F)cc2c1C[C@](c1ccccc1)([C@@H]1CCCN1)O2 result_operator=> result=10
compound="CNC(=O)c1cc2c(c(F)c1-c1c(Cl)c(F)cc3c1[C@H](C)[C@@](CN[C@H]1CC[C@](C)(O)CC1)(c1ccccc1)O3)OC1CC21 (stereo partly shown) [Compound 26a]" result_operator== result=0.04
